Molecular target: Rap guanine nucleotide exchange factor 3 (Homo sapiens) (UniProt O95398)
Sequence (O95398 whole entry, looked up): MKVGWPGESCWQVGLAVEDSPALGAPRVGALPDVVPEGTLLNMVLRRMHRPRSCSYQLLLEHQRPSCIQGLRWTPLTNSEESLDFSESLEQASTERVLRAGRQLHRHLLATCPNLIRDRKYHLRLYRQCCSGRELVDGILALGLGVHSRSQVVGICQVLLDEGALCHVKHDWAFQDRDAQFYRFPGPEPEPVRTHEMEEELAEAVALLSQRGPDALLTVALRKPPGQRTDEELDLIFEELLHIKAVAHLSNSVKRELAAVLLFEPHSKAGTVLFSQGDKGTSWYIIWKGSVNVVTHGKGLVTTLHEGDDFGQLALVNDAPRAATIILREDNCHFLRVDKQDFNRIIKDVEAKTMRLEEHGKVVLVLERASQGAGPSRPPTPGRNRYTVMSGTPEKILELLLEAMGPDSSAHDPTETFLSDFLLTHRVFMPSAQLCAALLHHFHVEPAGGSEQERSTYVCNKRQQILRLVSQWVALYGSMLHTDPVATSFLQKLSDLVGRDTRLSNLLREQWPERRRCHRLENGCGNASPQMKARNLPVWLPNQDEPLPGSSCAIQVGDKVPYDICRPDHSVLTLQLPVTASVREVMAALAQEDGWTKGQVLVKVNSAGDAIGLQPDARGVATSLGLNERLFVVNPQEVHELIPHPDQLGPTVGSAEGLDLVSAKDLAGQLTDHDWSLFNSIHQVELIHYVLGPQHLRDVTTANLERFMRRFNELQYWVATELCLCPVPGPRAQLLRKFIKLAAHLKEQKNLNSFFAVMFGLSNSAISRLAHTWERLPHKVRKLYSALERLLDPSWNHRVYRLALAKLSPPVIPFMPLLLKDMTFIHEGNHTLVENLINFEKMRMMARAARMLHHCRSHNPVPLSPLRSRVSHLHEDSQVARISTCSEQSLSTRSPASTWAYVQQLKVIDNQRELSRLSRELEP
Assay: Confirmatory qHTS for agonist of cAMP-regulated guanine nucleotide exchange factor 3 (EPAC1) (AID 1645881); further: nearly all actives have a fitted effect of over 75% in size;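 on activation: EPAC1 catalysed release of BODIPY-GDP from Rap1B seen as fluorescence loss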
Conditions: EPAC1 Rap1B BODIPY-GDP exchange fluorescence; series mostly up to 154 µM
Records with an inconclusive call do not appear. Active and inactive are the calls of the source. The call rests on the fitted dose curve; in most records, active means well fitted activation curve with a large enough effect; inconclusive means small, poorly fitted or top-dose-only effect; inactive means no such curve, though single readings can be large or run the other way.
Outcomes: active, inactive

1. O=C(c1ccccc1F)n1c2c(c3ccccc31)CCCC2
inactive
2. N#C/C(=C/c1ccc(N2CCCCC2)o1)C(=O)Nc1ccc(Cl)cc1
active
3. COC(=O)C1=CN(Cc2cccs2)C=C(C(=O)OC)C1c1cccc(O)c1
inactive
4. COc1ccc(CCNc2oc(-c3ccc(C)cc3)nc2C#N)cc1OC
inactive
5. Cc1ccc(-c2ccc(CN3C(CC(C)C)C(=O)N(Cc4cn(CCC5OCCO5)nn4)CCS3(=O)=O)cc2)cc1 (configuration not stated)
inactive
6. C=CCn1c(Cc2ccccc2)nc2c(cnn2-c2ccccc2)c1=O
inactive
7. CCCCc1ccc(NS(=O)(=O)c2cc3c4c(c2)CC(=O)N4CCC3)cc1
inactive
8. CC(C)Oc1cc(F)ccc1-c1cc(C(=O)Nc2ccc(C(C)C)cc2)[nH]n1
inactive
9. Cc1ccc(S(=O)(=O)c2nc(-c3ccco3)oc2SC(C)C)cc1
inactive
10. CCN(Cc1ccccc1)S(=O)(=O)c1cc2c3c(c1)CCN3C(=O)CC2
inactive
11. COc1ccc(NC(=O)c2cc(-c3cc(Cl)ccc3C)n[nH]2)cn1
inactive
12. C=CCn1c(SCC(=O)Nc2cc(Cl)ccc2C(=O)O)nc2sc(C)c(C)c2c1=O
inactive
13. COCCN1C(=O)c2[nH]nc(-c3ccccc3O)c2C1c1ccc(Cl)c(Cl)c1 (configuration not stated)
inactive
14. Cc1ccc(C)c(CSc2nnc(C)n3c2cc2sccc23)c1
inactive
15. COc1cc(C(C)=O)ccc1COc1ccc(C(=O)O)cc1OC
inactive
16. CCCCCCn1nc(C(=O)OCC(=O)c2c(N)n(C)c(=O)n(C)c2=O)c2ccccc2c1=O
inactive
17. Cc1cc(C)c2nc(C(F)(F)F)nc(N3CC(C)OC(C)C3)c2c1 (configuration not stated)
inactive
18. O=C(Nc1ccc(-c2cn3ccccc3n2)cc1)c1cccs1
inactive
19. CSC1=NSC2=NC(=O)/C(=C/c3coc4ccccc4c3=O)C(=N)N12
active
20. CC(C)CNC(=O)C1Nc2ccc(OC(F)(F)F)cc2C2C=CCC12 (configuration not stated)
inactive
21. O=C(NC1CC1)C1CCN(S(=O)(=O)c2cc([N+](=O)[O-])ccc2Cl)CC1
inactive
22. CC(=O)NC(c1ccc(Cl)cc1)c1ccc2cccnc2c1O (configuration not stated)
inactive

====

Test: Cellular Toxicity (caspase-3) Mesangial (AID 660);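 further: combined caspase 3 and 7 activity read by Caspase-Glo luminescence; cells exposed to compound for 16 h before the caspase read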
Conditions: mesangial cells, normalized: DMSO 0%, 100 µM tamoxifen 100%; series mostly up to 91.7 µM
Activity calls are given as the source filed them. Calls follow the shape of the dose curve; as a rule, active = well fitted activation curve with a large enough effect; inconclusive = small, poorly fitted or top-dose-only effect; inactive = flat fitted curve, though single readings scatter.
assayReadout: outcome

1) C/C=C\c1ccc(OC)cc1
inactive
2) C=CC(=O)OCCOCCOCCOCCOC(=O)C=C
inactive
3) O=C1c2ccccc2C(=O)C1c1ccc2ccccc2n1
inactive
4) COC(=O)CCCCC(=O)OC
inactive
5) C=CCOC(=O)c1ccccc1C(=O)OCC=C
inactive
6) O=[N+]([O-])c1cccc(Cl)c1Cl
inactive
7) CC1(C)CC(N=C=O)CC(C)(CN=C=O)C1 (stereo not given)
inactive
8) C=Cc1ccccc1Cl
inactive
9) c1ccc2scnc2c1
inactive
10) c1ccccc1
inactive
11) Cc1ccccc1C
inactive
12) O=C(O)CC(C(=O)O)C(CC(=O)O)C(=O)O (stereo not given)
inactive
13) NC1=NC(S)C2N=CN=C2N1 (stereo not given)
inactive
14) c1ccc2c(c1)c1cccc3ccc4cccc2c4c31
inactive
15) COC(=O)c1ccc(C=O)cc1
inactive
16) CCCCCCCCCCCC(=O)O
inactive
17) O[C@@H]([C@H](O)[C@@H](O)CBr)[C@@H](O)CBr
inactive
18) COc1ccc(/C=C/c2cc(OC)cc(=O)o2)cc1
inactive
19) Nc1ccc(S(=O)(=O)O)cc1
inactive
20) OCCNCCO
inactive
21) COCC(=O)O
inactive
22) C=CCc1ccc(OC)c(OC)c1
inactive
23) C1OCOCO1
inactive
24) Clc1cc(Cl)c(Cl)c(Cl)c1Cl
inactive
25) O=C1CCc2ccccc2O1
inactive
26) Cc1ccc(N)c([N+](=O)[O-])c1
inactive
27) CCO[Si](CCCN)(OCC)OCC
inactive
28) COC(=O)c1ccc(C)cc1
inactive
29) S=C1NC=NC2N=CNC12 (stereo not given)
inactive
30) c1ccc2c(c1)[nH]c1ccccc12
inactive
31) O=C(/C=C/c1ccc(O)c(O)c1)O[C@@H](C(=O)O)[C@@H](OC(=O)/C=C/c1ccc(O)c(O)c1)C(=O)O
inactive
32) Cc1ccc([N+](=O)[O-])c(C)c1
inactive
33) C=CC(=C)CCC=C(C)C
inactive
34) CC1=CC(C)(C)Nc2ccccc21
inactive
35) CCCCCCCCCCCCCCC1CO1 (stereo not given)
inactive
36) CCCCCCCCO
inactive
37) COc1cc(/C=C/c2ccccc2)oc(=O)c1
inactive
38) COc1c2ccoc2cc2oc(=O)ccc12
inactive
39) C=C(C)C1CC=C(C)C(O)C1 (stereo not given)
inactive
40) O=NO
inactive
41) C[C@H](CCC(=O)O)[C@H]1CC[C@H]2[C@@H]3CC[C@@H]4C[C@H](O)CC[C@]4(C)[C@H]3CC[C@]12C
inactive
42) O=C(O)c1ccccc1C(c1ccc(O)cc1)c1ccc(O)cc1
inactive
43) Nc1ccc(Cl)cc1Cl
inactive
44) Cc1ccc([N+](=O)[O-])cc1N
inactive
45) CC1=C2[C@H](/C=C(\C)C(=O)O)CC[C@@H](C)[C@H]2CC1
inactive

====

System: CP247
Assay: qHTS profiling for inhibitors of Plasmodium falciparum proliferation (AID 504749); further: nearly all actives have a fitted effect of over 60% in size
Details: P. falciparum in erythrocytes, SYBR Green DNA, 72 h; series mostly up to 28.7 µM
Results filed as inconclusive are left out. Active and inactive are the calls of the source. Calls follow the shape of the dose curve; as a rule, active = well fitted inhibition curve with a large enough effect; inconclusive = small, poorly fitted or top-dose-only effect; inactive = flat fitted curve, though single readings scatter. Bridge positions count the residues as written; N and C are the ends. Square brackets hold non-standard residues; d marks the D form. Peptide text beside a SMILES is read from it. * marks the point of attachment. Octanoyl(6-Me) = CCC(C)CCCCC(=O)*; Dab = NCC[CH](N)C(=O)O
Outcomes: y (active), n (inactive)

1. CCC(C)CCCCC(=O)NC(CCN)C(=O)NC(C(=O)NC(CCN)C(=O)NC1CCNC(=O)C(C(C)O)NC(=O)C(CCN)NC(=O)C(CCN)NC(=O)C(CC(C)C)NC(=O)C(Cc2ccccc2)NC(=O)C(CCN)NC1=O)C(C)O (stereo not given) ({Octanoyl(6-Me)}-[Dab]T[Dab][Dab][Dab]FL[Dab][Dab]T; lactam 4-C; configuration not given here)
n
2. CC(=O)OC1CC2CCC1(C)C2(C)C (stereo not given)
n
3. CCC(C)n1ncn(-c2ccc(N3CCN(c4ccc(OCC5COC(Cn6cncn6)(c6ccc(Cl)cc6Cl)O5)cc4)CC3)cc2)c1=O (stereo not given)
n
4. CC(C)(CO)C(O)C(=O)NCCCC(=O)O (stereo not given)
y
5. NC1=NC(S)C2N=CN=C2N1 (stereo not given)
n
6. C=C[C@]1(C)C[C@@H](OC(=O)CSCCN(CC)CC)[C@]2(C)C(C)CC[C@]3(CCC(=O)[C@H]32)[C@@H](C)[C@@H]1O (stereo not given in full)
y
7. CO[C@@H]1[C@@H](OC2OC(C)C(OC3CC(C)(O)C(OC(=O)CC(C)C)C(C)O3)C(N(C)C)C2O)[C@@H](CC=O)C[C@@H](C)C(=O)/C=C\C2O[C@H]2C[C@@H](C)OC(=O)C[C@H]1OC(C)=O (stereo not given in full)
y
8. CC(=O)O[C@@]12CO[C@@H]1C[C@H](O)[C@@]1(C)C(=O)[C@H](O)C3=C(C)[C@@H](OC(=O)C(O)[C@@H](NC(=O)OC(C)(C)C)c4ccccc4)C[C@@](O)([C@@H](OC(=O)c4ccccc4)[C@H]21)C3(C)C (stereo not given in full)
y
9. CC1CCC(C(C)C)C(OC(=O)c2ccccc2O)C1 (stereo not given)
n
10. O=C(O)c1cc(O)c2c(c1)[C@H]([C@H]1c3cc(C(=O)O)cc(O)c3C(=O)c3c(O[C@@H]4OC(CO)C(O)C(O)C4O)cccc31)c1cccc(O[C@@H]3OC(CO)C(O)C(O)C3O)c1C2=O (stereo not given in full)
n
11. CC(C)CN(C[C@@H](OP(=O)(O)O)[C@H](Cc1ccccc1)NC(=O)O[C@@H]1CCOC1)S(=O)(=O)c1ccc(N)cc1
n
12. CN(C)CCCCCCN(C)C
n
13. CN1CC[C@H](CN2c3ccccc3Sc3ccccc32)C1
y
14. C/C=C\c1ccc(OC)cc1
n
15. CC1(C)S[C@@H]2[C@H](NC(=O)COc3ccccc3)C(=O)N2[C@H]1C(=O)O
n
